Values compiled from PubChem BioAssay AID1159580.

test: chemical genetic growth profiling, strain panel (AID 1159580);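 note: tested at 20 µM; growth read once vehicle control cultures reached saturation at 30 °C; 1 = growth at the plate median or of vehicle wells; lower values mean less growth of the strain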; conditions: S. cerevisiae deletion strains, growth OD, locus YNL197C, strain WHI3, active compounds read low
In all, about 5,500 compounds went through this assay and about 2,000 (36%) were called active. Not shown: some 18% with an inconclusive outcome. The list shows a part of the results.

compound | normalized growth
NNCc1cccc(O)c1 | 1.01
NC(=O)c1ncn(C2OC(CO)C(O)C2O)c1O (stereo not drawn) | 1.01
NCCNS(=O)(=O)c1cccc2cnccc12 | 0.917
O=C1C(SCCO)=C(SCCO)C(=O)c2ccccc21 | 0.99
CCCN1CC(CSC)CC2c3cccc4[nH]cc(c34)CC21 (stereo not drawn) | 1.01
CN(C)C1C(=O)C(C(N)=O)=C(O)C2(O)C(=O)C3=C(O)c4c(O)ccc(Cl)c4C(O)C3CC12 (stereo not drawn) | 0.979
CC1(C)CCC=[N+]1[O-] | 1.01
CC(CCc1ccccc1)NCC(O)c1ccc(O)c(C(N)=O)c1 (stereo not drawn) | 0.999
C[C@@H](NC(=O)/C(C#N)=C/c1ccc(O)c(O)c1)c1ccccc1 | 1
CCc1cccc(N(C)C(N)=Nc2cccc3ccccc23)c1 | 1
CC(N=C(NC#N)Nc1ccncc1)C(C)(C)C (stereo not drawn) | 0.977
CCN(CC)CCOC(=O)C1(C2CCCCC2)CCCCC1 | 1.06
CN(C)CCC(c1ccc(Cl)cc1)c1ccccn1 (stereo not drawn) | 1.03

====

experiment: chemical genetic growth profiling, strain panel (AID 1159580);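 note: tested at 20 µM; growth read once vehicle control cultures reached saturation at 30 °C; 1 = growth at the plate median or of vehicle wells; lower values mean less growth of the strain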; settings: S. cerevisiae deletion strains, growth OD, locus YHR030C, strain SLT2
Screen size: about 5,500 compounds; about 2,000 (36%) were called active. About 18% were inconclusive and are not listed. No stated cut-off is given here; in the data, active means normalized growth mostly below about 0.91 (no sharp cut-off); inconclusive means no clear call, values can overlap the other calls; inactive means mostly above about 0.92. This is one part of the list.
Outcomes: active, inactive

compound | assigned label
NCCCCCCNS(=O)(=O)c1cccc2c(Cl)cccc12 | inactive
Fc1cc(F)cc(COc2cc(Cl)cc(Cl)c2)c1 | active
N#CC(c1ccccc1)N1CCCCC1 (stereo not drawn) | inactive
OCc1ccccc1-c1ccccc1 | inactive
CC(C)CCCC(C)C1CCC2C3CC[C@H]4C[C@H](O)CC[C@]4(C)C3CC[C@]12C (stereo partly drawn) | inactive
CC1(C)CC2C1CC[C@]1(C)CCC3C(C(=O)O)CC(=O)O[C@@]32C1 (stereo partly drawn) | inactive
Cc1ccc(-c2nn[nH]n2)cc1Cl | inactive
COCc1cc(=O)n2[nH]c(C(C)(C)C)cc2n1 | inactive
O=S(=O)(Oc1ccc(-c2csnn2)cc1)c1ccccc1Cl | inactive
Cc1cn[nH]c1 | inactive
N#CCCC1(CCC#N)c2ccccc2-c2ccccc21 | inactive
CCC(C)[C@H]1O[C@]2(CC[C@@H]1C)C[C@@H]1C[C@@H](C/C=C(\C)[C@@H](OC3C[C@H](OC)C(O[C@H]4C[C@H](OC)[C@@H](O)[C@H](C)O4)[C@H](C)O3)[C@@H](C)/C=C/C=C3\CO[C@@H]4[C@H](O)C(C)=C[C@@H](C(=O)O1)[C@]34O)O2 (stereo partly drawn) | inactive
OC(COc1ccc(F)cc1)(c1ccc(Cl)cc1)c1ccc(Cl)cc1 | inactive
CC(C)C[C@@H](CN)CC(=O)O | inactive
CC1=CCCC2C1(C)CCC(C)C2(C)CC/C(C)=C/C[n+]1cn(C)c2c(N)ncnc21 (stereo not drawn) | inactive
NC(=S)N/N=C1/CCCc2ccccc21 | active
Cc1ccc2nc(-c3ccc4c(c3)OCCO4)cn2c1 | inactive
C/C=C\C1=C(C(=O)O)N2C(=O)C(NC(=O)C(N)c3ccc(O)cc3)C2SC1 (stereo not drawn) | inactive
O=C(CC(=O)c1ccccc1)c1ccccc1 | active
Clc1ccc(SCc2ccsc2-c2ncns2)cc1 | inactive
Cc1onc(-c2c(Cl)cccc2Cl)c1NC(=O)O/N=C\c1ccc(N(C)C)cc1 | active
CC(C)CCCC(C)[C@H]1CCC2C3CC[C@@H]4C[C@H](O)CC[C@]4(C)C3CC[C@@]21C (stereo partly drawn) | inactive
C=Cc1c(SC)sc(C(=O)O)c1C | inactive
O=C1c2ccccc2C(=O)N1CN(CCSc1ccccc1)CN1C(=O)c2ccccc2C1=O | inactive
CNNC | inactive
O=P1(NCCCl)OCCCN1CCCl (stereo not drawn) | inactive
CC(=O)O[C@H]1CCC2(C)C3=C(CCC2C1(C)C)[C@]1(C)CCC(C(C)CCC=C(C)C)[C@@]1(C)CC3 (stereo partly drawn) | inactive
O=C1c2cccc3c(Sc4ccccc4)ccc(c23)C(=O)N1NCCO | active
CC(C)(C)NC[C@H](O)c1ccc(O)c(CO)c1 | inactive
C#CCSC1=NNC(c2ccccn2)S1 (stereo not drawn) | active
CCCc1cc(=O)[nH]c(=S)[nH]1 | inactive
O=S(=O)(Oc1ccc(OCc2ccccc2)cc1)c1cc(Cl)cc(Cl)c1 | inactive
O=c1[nH]cnc2ccsc12 | inactive
CCOC(=O)CSc1nc2cc(C(F)(F)F)cnc2n1C | inactive
CC(C)CC(NC(=O)OCC1c2ccccc2-c2ccccc21)C(=O)O (stereo not drawn) | inactive
CN(C)CCC(c1ccc(Cl)cc1)c1ccccn1 (stereo not drawn) | inactive
CC(C)CCCC(C)C1CCC2C3CC[C@H]4C[C@@H](O)CC[C@]4(C)C3CC[C@]12C (stereo partly drawn) | inactive
NC(COCc1ccccc1)C(=O)O (stereo not drawn) | inactive
Clc1ccc(Sc2ncnc3ccsc23)cc1 | active
CCOC(=O)/C(C#N)=C(\Nc1ccc(C(=O)OCC)cc1)SC | active
O=S(=O)(Nc1ccccc1Oc1ccccc1)c1ccc(-c2ccno2)s1 | inactive
C/C1=C\CC(C)(C)/C=C/CC2(C)OC2CC1 (stereo not drawn) | inactive
COC(=O)C1=C(Nc2ccccc2NS(=O)(=O)c2ccc(C(F)(F)F)cc2Cl)CSC1 | inactive
O=C1NC2CC2N1C(=O)OCc1ccccc1 (stereo not drawn) | inactive
Nc1ccc2nonc2c1N | inactive
COC(=O)c1sccc1NS(=O)(=O)c1cc(Cl)cc(Cl)c1 | inactive
O=C(O)CCCNCc1cccc2ccccc12 | inactive
NCCCNCCCCNCCCN | inactive
